Here, each record is paired with measured IC50 data.
target: T1, full length human DLL4 (human, UniProt Q9NR61 27-685); assay: FACS competition vs Notch1/Fc, HEK293 cells with human DLL4
T1 construct: whole, on cells; also called native DLL4 expressed in HEK293 cells
T1 sequence (Q9NR61 27-685): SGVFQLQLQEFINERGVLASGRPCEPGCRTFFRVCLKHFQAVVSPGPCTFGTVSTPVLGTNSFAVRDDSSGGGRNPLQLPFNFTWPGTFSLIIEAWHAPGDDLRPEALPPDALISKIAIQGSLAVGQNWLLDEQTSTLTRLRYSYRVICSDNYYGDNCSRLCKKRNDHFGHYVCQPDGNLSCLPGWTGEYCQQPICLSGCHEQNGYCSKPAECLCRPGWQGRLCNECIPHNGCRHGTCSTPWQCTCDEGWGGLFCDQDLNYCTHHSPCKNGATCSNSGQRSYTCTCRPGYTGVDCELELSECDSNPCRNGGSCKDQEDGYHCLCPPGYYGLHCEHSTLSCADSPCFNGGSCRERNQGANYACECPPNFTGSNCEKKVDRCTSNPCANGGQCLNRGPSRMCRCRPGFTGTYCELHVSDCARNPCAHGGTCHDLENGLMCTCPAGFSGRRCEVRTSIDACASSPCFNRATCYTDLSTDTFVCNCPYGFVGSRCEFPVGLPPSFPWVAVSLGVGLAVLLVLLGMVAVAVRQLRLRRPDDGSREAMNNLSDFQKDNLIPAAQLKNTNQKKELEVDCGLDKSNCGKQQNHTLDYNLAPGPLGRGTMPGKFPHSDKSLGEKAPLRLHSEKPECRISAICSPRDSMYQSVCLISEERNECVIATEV
Respond with the figure and its unit, in that order.

Binder	IC50
9G8 IgG2 VH wt/VL C33A (antibody, V domains shown, IgG2) VH: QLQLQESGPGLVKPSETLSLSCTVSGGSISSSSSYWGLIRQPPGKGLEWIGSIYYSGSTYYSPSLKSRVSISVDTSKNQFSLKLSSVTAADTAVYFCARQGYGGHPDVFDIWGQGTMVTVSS VL: SSELTQSPSVSVSPGQTARITCSGDKLGDVYVAWYQQKTGQSPVLVIYEDTKRPSGIPERFSGSNSGNTATLTISGTQVMDEADYYCQAWDSTTAVIFGGGTKLTVL	0.302 µg/mL
9G8 IgG2 VH wt/VL wt (antibody, V domains shown, IgG2, transiently expressed) VH: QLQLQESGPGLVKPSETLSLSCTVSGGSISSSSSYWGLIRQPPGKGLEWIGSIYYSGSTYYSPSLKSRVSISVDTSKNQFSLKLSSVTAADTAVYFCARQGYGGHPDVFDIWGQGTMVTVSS VL: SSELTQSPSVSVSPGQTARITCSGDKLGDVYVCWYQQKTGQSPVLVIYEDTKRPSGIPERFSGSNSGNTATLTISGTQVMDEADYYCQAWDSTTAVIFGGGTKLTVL	0.17 µg/mL
9G8 IgG2 VH wt/VL C33G (antibody, V domains shown, IgG2) VH: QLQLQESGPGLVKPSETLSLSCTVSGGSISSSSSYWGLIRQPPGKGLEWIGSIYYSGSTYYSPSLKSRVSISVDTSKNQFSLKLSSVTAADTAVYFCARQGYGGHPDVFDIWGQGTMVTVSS VL: SSELTQSPSVSVSPGQTARITCSGDKLGDVYVGWYQQKTGQSPVLVIYEDTKRPSGIPERFSGSNSGNTATLTISGTQVMDEADYYCQAWDSTTAVIFGGGTKLTVL	0.358 µg/mL
2H10 IgG2 VH wt/VL C33D (antibody, V domains shown, IgG2) VH: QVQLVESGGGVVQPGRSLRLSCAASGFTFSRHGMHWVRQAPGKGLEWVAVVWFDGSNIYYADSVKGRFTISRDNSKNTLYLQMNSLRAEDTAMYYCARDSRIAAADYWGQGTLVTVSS VL: SYELTQPPSVSVSPGQTVSITCSGDKLGDKYVDWYQQKPGQSPVLVIYQESKRPSGIPERFSGSSSGNTATLTISGTQAMDEADYYCQTWDSSLVVFGGGTKLTVL	0.178 µg/mL

Exam item: Item 9G8 IgG2 VH wt/VL C33Y (antibody, V domains shown, IgG2) VH: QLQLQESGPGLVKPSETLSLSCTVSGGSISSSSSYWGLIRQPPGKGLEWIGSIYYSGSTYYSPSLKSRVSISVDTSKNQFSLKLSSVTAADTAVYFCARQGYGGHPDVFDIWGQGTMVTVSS VL: SSELTQSPSVSVSPGQTARITCSGDKLGDVYVYWYQQKTGQSPVLVIYEDTKRPSGIPERFSGSNSGNTATLTISGTQVMDEADYYCQAWDSTTAVIFGGGTKLTVL has what recorded IC50?
Marked response: 0.32 µg/mL
